The values you see were collected from patent US20260015426A1.

Parameter Kd: see the listing below.
Target or system: T1, hu-M-IL1RAP construct, positions S21-T367 (extracellular domain of the membrane form of human IL1RAP) (human, UniProt Q9NPH3 21-367)
T1 construct: Biotinylated when captured on the Biacore chip
T1 sequence: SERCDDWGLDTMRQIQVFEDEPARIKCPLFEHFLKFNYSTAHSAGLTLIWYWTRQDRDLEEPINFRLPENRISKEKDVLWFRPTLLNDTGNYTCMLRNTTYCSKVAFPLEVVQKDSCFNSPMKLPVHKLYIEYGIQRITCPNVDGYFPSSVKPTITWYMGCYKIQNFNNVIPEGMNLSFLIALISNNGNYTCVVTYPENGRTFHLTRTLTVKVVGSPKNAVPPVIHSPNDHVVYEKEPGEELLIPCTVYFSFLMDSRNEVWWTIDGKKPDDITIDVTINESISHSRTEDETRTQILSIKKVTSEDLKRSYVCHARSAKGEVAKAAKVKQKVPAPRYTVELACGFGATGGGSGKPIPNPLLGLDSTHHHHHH
Assay procedure: SPR, Fab analyte, 37 C
Readout label: Kd

binder="K10 Fab (VL A51Y) (Fab, V domains shown, Fab with 8xHis tag) VH: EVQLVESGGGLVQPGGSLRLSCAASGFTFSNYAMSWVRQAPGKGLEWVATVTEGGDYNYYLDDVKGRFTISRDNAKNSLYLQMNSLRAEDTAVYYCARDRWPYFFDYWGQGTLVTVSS VL: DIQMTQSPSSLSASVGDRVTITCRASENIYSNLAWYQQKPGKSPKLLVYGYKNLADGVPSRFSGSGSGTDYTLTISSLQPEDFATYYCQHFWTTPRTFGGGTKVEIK" value_measured="0.0298 nM"
binder="H10 Fab (VH F29S/D55G/R96S) (Fab, V domains shown, Fab with 8xHis tag) VH: EVQLVESGGGLVQPGGSLRLSCAASGFTSSNYAMSWVRQAPGKGLEWVATVTEGGGYNYYLDDVKGRFTISRDNAKNSLYLQMNSLRAEDTAVYYCARDSWPYFFDYWGQGTLVTVSS VL: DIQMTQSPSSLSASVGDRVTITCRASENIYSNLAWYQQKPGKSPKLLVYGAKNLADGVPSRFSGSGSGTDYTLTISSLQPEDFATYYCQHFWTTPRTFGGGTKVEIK" value_measured="0.131 nM"
binder="H8 Fab (VH F29S/E52aV/R96A) (Fab, V domains shown, Fab with 8xHis tag) VH: EVQLVESGGGLVQPGGSLRLSCAASGFTSSNYAMSWVRQAPGKGLEWVATVTVGGDYNYYLDDVKGRFTISRDNAKNSLYLQMNSLRAEDTAVYYCARDAWPYFFDYWGQGTLVTVSS VL: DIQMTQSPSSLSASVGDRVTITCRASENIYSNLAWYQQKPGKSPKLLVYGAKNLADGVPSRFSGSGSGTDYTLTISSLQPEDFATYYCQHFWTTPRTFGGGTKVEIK" value_measured="0.17 nM"
